The reported measurements were obtained from patent US7943630B2.

Recorded melting point for the following molecules

Look over these answered cases.
Clc1ccc(N2CCC3(CCNCC3)CC2)cc1Cl [4th compound of method C] ... 209 to 212 °C
COc1ccc2cc(N3CCC4(CCNCC4)CC3)ccc2c1 [3rd compound of method C] ... 175.8 to 177.6 °C

Qu. Fill in the blank: the reported melting point of Clc1ccc(N2CCC3(CCNCC3)CC2)cc1 [7th compound of method C] is ____.
Ans. 95.5 to 97.4 °C

Qu. Fill in the blank: the reported melting point of c1ccc2cc(N3CCC4(CCNCC4)CC3)ccc2c1 [10th compound of method C] is ____.
Ans. 158 to 162 °C

Qu. Fill in the blank: the reported melting point of "Brc1ccc(N2CCC3(CCNCC3)CC2)nc1" is ____.
Ans. 103 to 105 °C

Qu. Fill in the blank: the reported melting point of "Clc1cccc(N2CCC3(CCNCC3)CC2)c1Cl" is ____.
Ans. 80.4 to 81.9 °C

Qu. Fill in the blank: the reported melting point of "Clc1ccc(N2CCC3(CCNCC3)CC2)nc1" is ____.
Ans. 71.2 to 72.9 °C

Qu. Fill in the blank: the reported melting point of "Brc1cccc(N2CCC3(CCNCC3)CC2)n1.O=C(O)/C=C/C(=O)O" is ____.
Ans. 198.5 to 199.3 °C

Qu. Fill in the blank: the reported melting point of "Fc1ccc(N2CCC3(CCNCC3)CC2)cc1Cl.O=C(O)/C=C/C(=O)O" is ____.
Ans. 201.4 to 202.2 °C
